The compounds listed here are annotated with their Potency.
EXPERIMENTAL_PROTOCOL: Quantitative High-Throughput drug screen in 47 multiple myeloma cell lines against the NCATS MIPE library collection: Delta47_JCRB cell viability assay (AID 1918925; note: potency is the fitted concentration of half-maximal effect; nearly all actives have a fitted effect of over 45% in size)
EXPERIMENTAL_SETUP: Delta47 myeloma viability, CellTiter-Glo ATP, 48 h; series mostly up to 45.8 µM
Results filed as inconclusive are left out. The source made the active and inactive calls. Calls come from the whole dose curve; as a rule, active = well fitted cell-killing curve with a large enough effect; inconclusive = small, poorly fitted or top-dose-only effect, or effect the other way; inactive = no such curve, though single readings can be large or run the other way.

Example compounds with recorded Potency:
>>> meas_value("CC(NCc1ccc2c(c1)nc(NC(=O)c1ccc(-c3cn[nH]c3)s1)n2CC(C)(C)O)C(C)(C)C (stereo not drawn)")
"0.0833 µM (active)"
>>> meas_value("COC(=O)[C@]12CCC(C)(C)C[C@@H]1[C@@H]1C(=O)C=C3[C@@]4(C)C=C(C#N)C(=O)C(C)(C)[C@@H]4CC[C@@]3(C)[C@]1(C)CC2")
"0.235 µM (active)"
>>> meas_value("C[C@@H]1CN(CC(=O)Nc2ccc3c(c2)Cc2cccc(-c4cc(=O)cc(N5CCOCC5)o4)c2S3)C[C@H](C)O1")
"2.64 µM (active)"
>>> meas_value("Nc1ccc(C(=O)c2cc3c(ccc4ccccc43)[nH]2)cc1")
"1.87 µM (active)"

**Query** Param item = CC(C)=CCCC(C)=CCCC(C)=CCSc1ccccc1C(=O)O ; retrieve measured Potency.
**Result** 2.35 µM (active)

**Query** May I ask what Potency has been recorded for COC(=O)c1ccc2c(C(=Nc3ccc(N(C)C(=O)CN4CCN(C)CC4)cc3)c3ccccc3)c(O)[nH]c2c1 ?
**Result** 6.62 µM (active)

**Query** Which value of Potency has been reported for OCc1ccc(-c2ccc(-c3ccc(CO)s3)o2)s1 in the records?
**Result** 20.9 µM (active)

**Query** Looking for the measured Potency of COc1cc(C(C)C)c2c(c1)S(=O)(=O)N(COc1cc(=O)n3cccc(OCCN4CCCCC4)c3n1)C2=O , can you help?
**Result** 16.6 µM (active)
